Target: DRB1*1501 (Homo sapiens, UniProt P01903+P01911)
Construct: gift: William Kwok, Benaroya Institute, Seattle
Assay: competition-based HLA binding assay
Conditions: competition with biotin-MBP 84–102 at 0.5 μM, 24 h, 37°C; NB = non-binder; read-out: DRB1*1501 IC50
No end group written: not given here.
metric-name: IC50

residue-string	endpoint-value
TTVYGAFDPLLAVAD [GAD65_338–352]	31.3 µM

* * *

Target: DRB1*0401 (Homo sapiens, UniProt P01903+P01911, A100K/A169T/F76Y/I96L/K127E/L162R/M171V/N62H/P40V/Q125Y/R42H/S133A/S149N/S66Y/V115G/V209L/W38E)
Conditions: read-out: DRB1*0401 IC50; competition with biotin-Flu-HA 306–318 at 0.1 μM, 24 h, 37°C; NB = non-binder
No end group written: not given here.

residue-string	IC50
LGDKVNFFRMVISNPAATHQD [GAD65_550–570]	< 25 µM
NMFTYEIAPVFVLLEYVTLKKMRE [GAD65_203–226]	< 25 µM
VDVFKLWLMWRAKGTTGFEAH [GAD65_450–470]	> 50 µM
TTVYGAFDPLLAVAD [GAD65_338–352]	> 50 µM

* * *

Target: DRB1*0701 (Homo sapiens, UniProt P01903+P01911, A100R/A102G/A103Q/D57E/D86V/E43K/F76Y/K127E/L162R/M171V/P40G/Q125H/Q99D/R33Q/R42Y/R54Q/S133A/S66F/T210M/V115G/Y107V/Y59L/Y89S)
Assay: biochemical
pIC50: −log10 of the molar value. No end group written: not given here.
// values below are reported pIC50
metric-name: pIC50

residue-string	endpoint-value
VDVFKLWLMWRAKGTTGFEAH [GAD65_450–470]	4.99
GAISNMYAMMIARFKMFPEVKEKGM [GAD65_243–267]	5.06

* * *

Biological target: DRB1*0701 (Homo sapiens, UniProt P01903+P01911, A100R/A102G/A103Q/D57E/D86V/E43K/F76Y/K127E/L162R/M171V/P40G/Q125H/Q99D/R33Q/R42Y/R54Q/S133A/S66F/T210M/V115G/Y107V/Y59L/Y89S)
Conditions: read-out: DRB1*0701 IC50; competition with biotin-Flu-HA 306–318 at 1 μM, 24 h, 37°C; NB = non-binder
No end group written: not given here.
metric-name: IC50

residue-string	endpoint-value
TTVYGAFDPLLAVAD [GAD65_338–352]	> 50 µM
